System: Yersinia pseudotuberculosis
Assay: growth AUC normalised to DMSO control (fraction of control); higher = less growth inhibition, active = hit call of the paper;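 active = AUC significantly below DMSO controls by Student t-fit with adjusted P under 0.01; inactive = not significantly reduced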
Conditions: 20 µM
Structures can show the parent of a compound that is named as a salt.
Please state which outcome applies, choosing from active, inactive

Illustrative cases are given below, each with its answer.
Cc1cccc(N(C)C(=S)Oc2ccc3ccccc3c2)c1 [Tolnaftate]    inactive
CCN1CCCC1CNC(=O)c1cc(S(=O)(=O)CC)c(N)cc1OC (configuration not stated) [Amisulpride]    inactive
CO[C@@]1(NC(=O)C2SC(=C(C(N)=O)C(=O)O)S2)C(=O)N2C(C(=O)O)=C(CSc3nnnn3C)CS[C@@H]21 (some centres not stated)    active
CN1CCCC(n2nc(Cc3ccc(Cl)cc3)c3ccccc3c2=O)CC1 (configuration not stated) [Azelastine hydrochloride]    inactive
CC[C@H]1OC(=O)[C@H](C)[C@@H](O[C@H]2C[C@@](C)(OC)[C@@H](O)[C@H](C)O2)[C@H](C)[C@@H](O[C@@H]2O[C@H](C)C[C@H](N(C)C)[C@H]2O)[C@](C)(O)C[C@@H](C)CN(C)[C@H](C)[C@@H](O)[C@]1(C)O    active
Cc1cccc(C)c1OCC(C)N (configuration not stated) [Mexiletine hydrochloride]    inactive

Now let's try a different one.
query: Write down the call the test reported for this molecule. Item: "CN(C)c1nc(N(C)C)nc(N(C)C)n1"
result: inactive
